All values here come from the supplement of paper PMC4314810.

System: MCF7
Assay: HRG-induced Akt activation (dPAkt = log2 pAkt/Akt HRG-stimulated minus log2 pAkt/Akt basal) (log2 ratio difference); higher = stronger HRG-induced Akt(T308) phosphorylation
Conditions: miRNA mimic concentration 10 nM; time after transfection 72 h; heregulin 10 ng/ml; stimulation time 1 h
Measured quantity: HRG-induced Akt activation (log2)
Lab note: record just the number, no unit beside it.

Please report the recorded HRG-induced Akt activation (log2) for ACUGUAGUAUGGGCACUUCCAG . 1.46

Would you kindly repeat that for CUUUUUGCGGUCUGGGCUUGC ? 2.31

Would you kindly repeat that for GCAGGAACUUGUGAGUCUCCU ? 1.8

Would you kindly repeat that for CAUUAUUACUUUUGGUACGCG ? 1.58

Would you kindly repeat that for UGGACUGCCCUGAUCUGGAGA ? 1.55

Would you kindly repeat that for GCCCCUGGGCCUAUCCUAGAA ? 1.25

Would you kindly repeat that for UUCUCGAGGAAAGAAGCACUUUC ? 1.61

Would you kindly repeat that for CAACAAAUCCCAGUCUACCUAA ? 1.51

Would you kindly repeat that for GCCCGCGUGUGGAGCCAGGUGU ? 1.39

Would you kindly repeat that for CUUAUCAGAUUGUAUUGUAAUU ? 1.87

Would you kindly repeat that for GGAGACGCGGCCCUGUUGGAGU ? 1.33

Would you kindly repeat that for AAGCCCUUACCCCAAAAAGCAU ? 1.6

Would you kindly repeat that for GCAGCAGAGAAUAGGACUACGUC ? 1.7

Would you kindly repeat that for AGGGACGGGACGCGGUGCAGUG ? 1.15
